Just for reference, patent US20110097340A1 is where these values come from.

Study System: human VEGF165 (human, UniProt P15692 207-395)
Sequence (P15692 other isoform, or with tags, fused parts or gaps limits assumed): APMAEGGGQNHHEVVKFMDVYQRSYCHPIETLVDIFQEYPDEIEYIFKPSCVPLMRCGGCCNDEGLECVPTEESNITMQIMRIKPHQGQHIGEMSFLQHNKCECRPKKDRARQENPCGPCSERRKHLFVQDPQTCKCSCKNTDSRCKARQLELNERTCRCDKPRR
Measurement Protocol: cell-based or functional assay
Parameter: HUVEC proliferation, geometric mean IC50 (nM)
Your answer should be a plain number; it is taken to be in nM.

Measured HUVEC proliferation, geometric mean IC50, XPA.10.064.07 IgG2 (antibody, V domains shown, IgG2) VH: EVQLVQSGAEVRKPGASVKVSCKASGYSFTGHYIHWVRQAPGQGLEWMGWINPYSGGTNFPREFQGRVTMTRDTSVNTVYMELTRLTSDDTSVYYCARDEMHVGGLDYWGQGTLVTVSS VL: SYVLTQPPSASGTPGQRVTISCSGSSSNIGINYVYWYQQLPGTAPKLLIYRNDQRPSGVPDRFSGSKSGTSASLAISGLRSEDEADYYCATWDDSLSGVVFGGGTKVTVL : 0.129
